Target: Transthyretin (Homo sapiens)
Assay: Inhibition of transthyretin amyloidosis assessed as fibril formation pH 4.4 at 100 uM
Assay type: functional
EXPERIMENTAL_ENDPOINT: percent fibril formation relative to control (%)
Number only, in %; omit the unit.

A selection of reference data follows.
CCOC(=O)c1c(N)sc(C(=O)NC2CCCCC2)c1C :: 58.1
CCCCN(CC)Cc1c(C)nc2c(ccc3ccccc32)c1O :: 75.7
CCOC(=O)c1sc(=S)n(-c2ccc(Br)cc2)c1N :: 164

Which percent fibril formation relative to control reading was recorded for the compound `Fc1ccccc1NC(=S)N(CCCN1CCOCC1)Cc1cccnc1` ?
99.3

Entry O=C(O)C1CSC(c2ccc([N+](=O)[O-])cc2)N1 (stereo not drawn) please
119

Entry `CCCCN(CC)Cc1c(C)nc2ccc(Cl)cc2c1O` please
79.7

Entry `COc1ccc(/C=C2\SC(=S)N(c3ccc(O)cc3)C2=O)cc1` please
281

Entry `NN1C(=O)/C(=C\c2ccc(Cl)cc2)NC1=S` please
131

###

In this section we review reported percent fibril formation relative to control values for a set of compounds.
Target: Transthyretin (Homo sapiens)
Assay: Inhibition of transthyretin amyloidosis assessed as fibril formation pH 4.4 at 100 uM
Format: functional
Number only, in %; omit the unit.

O=C(O)CCc1nc(-c2cccs2)no1 :: 32.1
O=C(O)c1ccc(Cl)c(N2C(=O)C3C4CCC(C4)C3C2=O)c1 (stereo in doubt; 33) :: 62.2
Nc1nc(F)cc(Oc2ccccc2F)n1 :: 54.4
O=C(O)C1CSC(c2c(F)cccc2Cl)N1 (stereo not given) :: 20.3

Which percent fibril formation relative to control reading was recorded for the compound O=C(O)C1CSC(c2ccc(O)cc2)N1 (stereo not given) ?
120

Entry `CCOC(=O)c1sc(=S)n(-c2cccc3ccccc23)c1N` please
146

Entry `Cc1nc2c(C(=O)NCc3ccc(F)cc3)cnn2c(O)c1Cc1ccccc1F` please
46.9

Entry `Oc1ccccc1-c1nnc(S)o1` please
13.8

Entry `O=C1/C(=C\c2ccco2)SC(=S)N1c1cccc(F)c1` please
340

Entry `CCN(CC)CCCN(Cc1ccco1)C(=S)Nc1ccc(OC)cc1` please
107
